Record type: log10 GI50 measurement. Applies to: MV-4-11
In plain terms, each number is the log10 of measured GI50 in nM.

{"MOLECULE": "Cc1cc(N2C(=O)c3cc(-c4cccc(N(C)C)n4)n(C)c3C2c2ccc(Cl)cc2)cn(C)c1=O (stereo not shown)", "log10 GI50": 1.94}
{"MOLECULE": "Cc1cc(N2C(=O)c3c(C4CC4)c(C)n(C)c3C2c2ccc(Cl)cc2)cn2c(C)nnc12 (stereo not shown)", "log10 GI50": 0.96}
{"MOLECULE": "Cc1cc(N2C(=O)c3c(C(=O)N(C)C)cn(C)c3C2c2ccc(Cl)cc2)cn2c(C)nnc12 (stereo not shown)", "log10 GI50": 2.11}
{"MOLECULE": "CC(=O)Nc1cn(C)c2c1C(=O)N(c1cc(C)c3nnc(C(F)F)n3n1)C2c1ccc(Cl)cc1 (stereo not shown)", "log10 GI50": 1.29}
{"MOLECULE": "COc1ccc(C2c3c(ccn3C)C(=O)N2c2cc(Cl)c(=O)n(C)c2)cc1 (stereo not shown)", "log10 GI50": 2.82}
{"MOLECULE": "CCOC(=O)N1CC(n2cc(C)c3c2C(c2ccc(Cl)cc2)N(c2cc(C)c4nnc(C)n4c2)C3=O)C1 (stereo not shown)", "log10 GI50": 1.40}
{"MOLECULE": "Cc1cc(N2C(=O)c3c(NC(=O)OC(C)(C)C)cn(C)c3C2c2ccc(Cl)cc2)nc2c1nnn2C (stereo not shown)", "log10 GI50": 1.50}
{"MOLECULE": "CNC(=O)Cn1cc(C)c2c1C(c1ccc(Cl)cc1)N(c1cc(C)c3nnc(C)n3c1)C2=O (stereo not shown)", "log10 GI50": 2.61}

Which log10 GI50 is reported for this molecule? Cc1cc(N2C(=O)c3cc(-c4cnc(N(C)C)nc4)n(C)c3C2c2ccc(Cl)cc2)cn(C)c1=O (stereo not shown) 1.58

Can you share its log10 GI50? I mean this molecule: Cc1cn(C2COC2)c2c1C(=O)N(c1cc(C)c3nnc(C)n3c1)C2c1ccc(Cl)cc1 (stereo not shown) 0.83

I have this molecule here, Cn1ccc2c1C(c1ccc(F)cc1)N(c1cc(Cl)c(=O)n(C)c1)C2=O (stereo not shown) , and I need its recorded log10 GI50. 2.32

Which measured log10 GI50 value corresponds to COc1ncc(-c2cc3c(n2C)[C@@H](c2ccc(Cl)cc2)N(c2cc(C)c(=O)n(C)c2)C3=O)c(OC)n1 ? 0.95

Reported log10 GI50, molecule Cc1cn(C(=O)N(C)C)c2c1C(=O)N(c1cc(C)c3nnc(C)n3c1)C2c1ccc(Cl)cc1 (stereo not shown) : ____ 1.29
